# particulars: in methanol, 318.15 K
measured_metric: solubility (mole fraction)
Answer using only a numeral; do not append any unit.

Lab book: solubility (mole fraction) of Cc1onc(-c2c(Cl)cccc2Cl)c1C(=O)N[C@@H]1C(=O)N2[C@@H]1SC(C)(C)[C@@H]2C(=O)[O-].O.[Na+] noted as 0.0853

====

# particulars: in isopropanol, 313.15 K
measured_metric: solubility (mole fraction)
I only need the number, thanks.

Record summary for Cc1onc(-c2c(Cl)cccc2Cl)c1C(=O)N[C@@H]1C(=O)N2[C@@H]1SC(C)(C)[C@@H]2C(=O)[O-].O.[Na+] : reported solubility (mole fraction) = 0.000958

Provenance of the data: BigSolDB 2.1
